Tested on: SR leukemia
Experiment: NCI tumour cell line growth inhibition, 48 h
Could you please report measured TGI for the items listed next?
All answers are understood in µM, so give the number only.

Query block: Quickly give me recorded TGI for COc1ccc(CN2c3ccccc3Sc3ccccc32)cc1O
Result block: 30.7

Query block: Quickly give me recorded TGI for CCCC(=O)Nc1cc(/C=C/C(=O)N2C[C@@H]3C[C@]34C2=CC(=O)c2[nH]cc(C)c24)n(C)c1
Result block: 0.0709

Query block: Quickly give me recorded TGI for C[C@]12CCC3c4ccc(O)cc4CCC3C1CC[C@@H]2NC(=O)/C=C/c1ccc(O)c(O)c1 (some centres not stated)
Result block: 42

Query block: Quickly give me recorded TGI for Cc1cc(C)c(-c2c(O)c(Br)c(-c3c(C)cc(C)c(Br)c3C)c(O)c2Br)c(C)c1Br
Result block: 8.29
